target: adenosine A1 receptors (Bos taurus, UniProt P28190); test: inhibition of [^3 H]CHA binding to A1 adenosine receptors in bovine brain membranes;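 also: Filter-bound radioactivity read by liquid scintillation counting, with dose-inhibition curves built from 4–8 test concentrations, each run in triplicate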
property_measured: pKi
Please treat pKi as minus the base-10 logarithm of the molar concentration.

Examples with their reported pKi follow.
compound	measured
Cn1c(=O)[nH]c2ncn(C)c2c1=O [1,7-dimethylX]	5.13
Cn1c(=O)c2[nH]c(-c3ccccc3[N+](=O)[O-])nc2n(C)c1=O [8-(o-nitrophenyl)T]	7.31

State, in one line, measured pKi of Cn1cnc2c1c(=O)[nH]c(=O)n2C [3,7-Dimethyl (theobromine), theobromine] 7.17

Supply measured pKi of Cn1c(=O)c2[nH]c(-c3ccc([N+](=O)[O-])cc3)nc2n(C)c1=O [8-(p-nitrophenyl)T] in your reply. 8.40

Please look at this compound and report its pKi: Cn1c(=O)c2c(ncn2C)n(C)c1=O [caffeine] 4.96

Output measured pKi for this item: O=c1[nH]c(=O)c2[nH]cnc2[nH]1 [xanthine] 4.00

Respond only with pKi recorded for Cn1c(=O)c2[nH]c(-c3cccc(C(=O)O)c3)nc2n(C)c1=O [8-(m-carboxyphenyl)T] 6.27

Give recorded pKi. Cn1c(=O)c2[nH]c(-c3ccc(Br)cc3)nc2n(C)c1=O [8-(p-bromophenyl)T] 9.47

Give the measured pKi for Cn1c(=O)c2nc(-c3ccccc3N)[nH]c2n(C)c1=O [B87, 8-(o-aminophenyl)theophylline] 8.64

---

experiment: Solubility of 8-phenylxanthines; format: physicochemical; conditions: ethanol, organic solvent or mixture; read-out: soluble in ethanol at
property_measured: solubility (µM)
The response must be a number in µM with no trailing unit.

State, in one line, measured solubility of CCCn1c(=O)c2[nH]c(-c3ccc(Cl)cc3N)nc2n(CCC)c1=O 1000

---

biological target: adenosine A1 receptors (Bos taurus); experiment: inhibition of [^3 H]CHA binding to A1 adenosine receptors in bovine brain membranes; conditions: Table I; vs [^3 H]-cyclohexyladenosine, bovine brain
Let's look at some compounds and their measured pIC50.
Entry type: numeric. Quantity: pIC50, the -log10 of concentration in molar units.

// known answers, use as guide
structure_string	measured
Cn1c(=O)c2[nH]c(-c3ccc(Cl)cc3)nc2n(C)c1=O	9.10
CCCn1c(=O)c2[nH]c(-c3ccc(Cl)cc3N)nc2n(CCC)c1=O	10.30

// next item, pIC50 requested
Recall the reported pIC50 of Cn1c(=O)c2[nH]c(-c3ccc(N)cc3N)nc2n(C)c1=O when tested on adenosine A1 receptors (Bos taurus). 8.10

---

Reported pIC50 values are given for each entry in this list.
Biological target: adenosine A1 receptors (Bos taurus, UniProt P28190)
Sequence (P28190 1-326): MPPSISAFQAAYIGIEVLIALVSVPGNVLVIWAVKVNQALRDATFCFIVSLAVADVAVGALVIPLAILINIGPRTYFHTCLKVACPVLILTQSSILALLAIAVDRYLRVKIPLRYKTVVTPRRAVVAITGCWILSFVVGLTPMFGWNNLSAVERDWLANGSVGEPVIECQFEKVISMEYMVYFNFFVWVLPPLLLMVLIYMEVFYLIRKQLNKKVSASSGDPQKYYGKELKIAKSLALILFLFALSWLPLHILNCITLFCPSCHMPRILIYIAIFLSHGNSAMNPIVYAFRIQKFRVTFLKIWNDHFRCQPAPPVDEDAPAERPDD
Test: inhibition of [^3 H]CHA binding to A1 adenosine receptors in bovine brain membranes
Conditions: Table II; vs [^3 H-CHA] in bovine brain
Scale for pIC50: -log10 of concentration given in mol/L; no unit attached.

Some molecules with recorded pIC50:
structure_string	assay_target	pIC50
C=CCn1c(=O)c2[nH]c(-c3ccc(Cl)cc3N)nc2n(C)c1=O	adenosine A1 receptors (Bos taurus, UniProt P28190)	8.70
Cn1c(=O)c2[nH]c([N+](=O)[O-])nc2n(C)c1=O	adenosine A1 receptors (Bos taurus, UniProt P28190)	5.46
Cn1c(=O)c2[nH]c(-c3cccc([N+](=O)[O-])c3)nc2n(C)c1=O	adenosine A1 receptors (Bos taurus, UniProt P28190)	7.30

# context switch: different molecule, same pIC50
Look up and report measured pIC50 for this entry: C=CCn1c(=O)c2[nH]c(-c3ccc(Cl)cc3N)nc2n(CC=C)c1=O 9.10
